Sourced from patent US8410302B2

Test system: Phytophthora infestans
experimentDescription: whole plant or invertebrate
Assay type: in vivo
experimentalSetup: Phytophthora infestans, in Solanum lycopersicum, read-out: TLB control value (C.V.)
Recorded pest or weed control at 50 ppm for the following compounds
Give the value in % but do not write % after it.

                                   compound  assayresult
0  CCOc1cc(C=C(Br)Br)ccc1OCc1ccccc1/C(=N\OC)C(=O)NC [Example 84]           98
1  CCOc1cc(C=C(Cl)Cl)ccc1OCc1ccccc1/C(=N\OC)C(=O)NC [Example 60]           95
2  CNC(=O)/C(=N/OC)c1ccccc1COc1ccc(C=C(F)F)cc1 [Example 10]          100
3  CO/N=C(/C(=O)OC)c1ccccc1COc1cc(Br)ccc1C=C(Cl)Cl [Example 61]          100

Look up pest or weed control at 50 ppm: CNC(=O)/C(=N/OC)c1ccccc1COc1cc(C=C(Cl)Cl)ccc1OC [Example 48]
100

* * *

Test system: Puccinia recondita
experimentDescription: Fungicidal activity against wheat leaf rust (WLR) disease, control value
Format: in vivo
experimentalSetup: 50 ppm, wheat leaf rust
Reported values of WLR control value (C.V.) for individual entries
Express your answer in %, writing the number without its unit.

Please review the entries below; each comes with its answer.
>>> df
                                  smilesstr         measuredattribute  assayresult
0  CO/N=C(/C(=O)OC)c1ccccc1CON=C(C)c1cccc(C=C(F)F)c1  WLR control value (C.V.)          100
1  CNC(=O)/C(=N/OC)c1ccccc1CON=C(C)c1ccc(C=C(F)F)cc1  WLR control value (C.V.)          100

Consider the compound shown here: CO/N=C(/C(=O)OC)c1ccccc1CON=C(C)c1cccc(C=C(Cl)Cl)c1 What is its recorded WLR control value (C.V.)?
100

Report WLR control value (C.V.) for CO/N=C(/C(=O)OC)c1ccccc1CON=C(C)c1ccc(C=C(Cl)Br)cc1 please.
100

Quick one: WLR control value (C.V.) for CO/N=C(/C(=O)OC)c1ccccc1CON=C(C)c1ccc(C=C(F)Cl)cc1 ?
40

Item CNC(=O)/C(=N/OC)c1ccccc1COc1c(OC)ccc(C=C(Cl)Cl)c1Br has what recorded WLR control value (C.V.)?
100

* * *

pest or weed control at 50 ppm values by entry
Test system: Phytophthora infestans
experimentDescription: whole plant or invertebrate
Type: in vivo
experimentalSetup: Phytophthora infestans, in Solanum lycopersicum, read-out: TLB control value (C.V.)
Give just the numeric value; % need not be written.

Given OC(c1ccc(Cl)cc1)(c1cncnc1)c1ccccc1Cl (centres unmarked) [Fenarimol, reference compound] , state its recorded pest or weed control at 50 ppm.
95

Need pest or weed control at 50 ppm of CNC(=O)/C(=N/OC)c1ccccc1COc1ccc(C=C(Br)Br)cc1Br , thanks.
98

If you can, please state the reported pest or weed control at 50 ppm value of CO/N=C(/C(=O)OC)c1ccccc1COc1ccc(F)cc1C=C(Br)Br .
98

For the molecule shown here, CNC(=O)/C(=N/OC)c1ccccc1COc1ccc(F)cc1C=C(Cl)Cl , give the reported pest or weed control at 50 ppm.
100

Name the recorded pest or weed control at 50 ppm for CO/N=C(/C(=O)OC)c1ccccc1COc1ccc(C=C(Br)Br)c(Cl)c1 .
98

* * *

System: Rhizoctonia solani AG-1
experimentDescription: Fungicidal activity against rice sheath blight (RSB) disease, control value
experimentalSetup: Rhizoctonia solani, AG1, in Oryza sativa, read-out: RSB control value (C.V.)
measuredAttribute: pest or weed control at 10 ppm (%)
Please reply with the bare figure in % and do not write the unit itself.

Here are 3 compounds together with their reported answers.
In [3]: df
Out[3]:
                                   compound  readoutunit  assayresult
0  CCOc1cc(C=C(Br)Br)ccc1OCc1ccccc1/C(=N\OC)C(=O)NC [Example 84]            %           98
1  CO/N=C(/C(=O)OC)c1ccccc1COc1ccc(F)cc1C=C(Br)Br [Example 79]            %           98
2  CO/N=C(/C(=O)OC)c1ccccc1COc1ccc(F)cc1C=C(Cl)Cl [Example 55]            %          100

Consider the compound shown here: CNC(=O)/C(=N/OC)c1ccccc1COc1ccc(C)cc1C=C(Cl)Cl [Example 46] What is its recorded pest or weed control at 10 ppm?
100

Using the record for CNC(=O)/C(=N/OC)c1ccccc1COc1ccc(C=C(Cl)Cl)cc1Cl [Example 40] , report its pest or weed control at 10 ppm.
100

* * *

This listing pairs compounds with measured pest or weed control at 100 ppm.
Tested on: Puccinia recondita
experimentDescription: Fungicidal activity against wheat leaf rust (WLR) disease, control value
Assay type: in vivo
experimentalSetup: 100 ppm, wheat leaf rust; read-out: WLR control value (C.V.)
Give your result in % as a bare value.

>>> print(df.to_string())
                                  smilesstr  readoutunit  assayresult
0  CNC(=O)/C(=N/OC)c1ccccc1COc1cccc(C=C(Cl)Br)c1            %          100
1  CO/N=C(/C(=O)OC)c1ccccc1COc1ccc(C=C(Br)Br)cc1            %          100
2  CO/N=C(/C(=O)OC)c1ccccc1COc1c(C)cccc1C=C(Cl)Cl            %          100
3  CO/N=C(/C(=O)OC)c1ccccc1COc1ccc(C=C(F)Cl)cc1            %           90
4  CO/N=C(/C(=O)OC)c1ccccc1COc1ccc(C=C(Cl)Cl)cc1Cl            %          100
5  CNC(=O)/C(=N/OC)c1ccccc1COc1cc(C=C(Cl)Cl)ccc1OC            %          100

What measured pest or weed control at 100 ppm goes with CO/N=C(/C(=O)OC)c1ccccc1COc1cccc(C=C(Br)Br)c1 ?
92

* * *

Overview of reported pest or weed control at 10 ppm across a group of molecules:
System: Rhizoctonia solani AG-1
experimentDescription: Fungicidal activity against rice sheath blight (RSB) disease, control value
experimentalSetup: Rhizoctonia solani, AG1, in Oryza sativa, read-out: RSB control value (C.V.)
Report as a plain number; the unit % is understood.

In [3]: df
Out[3]:
                                  smilesstr               measuredattribute  assayresult
0  CO/N=C(/C(=O)OC)c1ccccc1COc1ccc(C=C(Br)Br)cc1  pest or weed control at 10 ppm          100

Recall the recorded pest or weed control at 10 ppm for CO/N=C(/C(=O)OC)c1ccccc1COc1c(OC)ccc(C=C(Br)Br)c1Br with Rhizoctonia solani AG-1 and state it.
98

Reported pest or weed control at 10 ppm for Rhizoctonia solani AG-1, given CO/N=C(/C(=O)OC)c1ccccc1COc1ccc(C=C(Cl)Cl)cc1Cl ?
100

* * *

Test system: Phytophthora infestans
experimentDescription: whole plant or invertebrate
Format: in vivo
experimentalSetup: Phytophthora infestans, in Solanum lycopersicum, read-out: TLB control value (C.V.)
pest or weed control at 2 ppm values by entry
# output: bare number, implied unit %

Some compounds with recorded pest or weed control at 2 ppm:
>>> df
                                   compound  readoutunit  assayresult
0  CO/N=C(/C(=O)OC)c1ccccc1COc1cc(C=C(Cl)Cl)ccc1OC [Example 47]            %           85
1  CNC(=O)/C(=N/OC)c1ccccc1COc1ccc(C=C(Br)Br)cc1C [Example 66]            %           75
2  CO/N=C(/C(=O)OC)c1ccccc1COc1ccc(C)cc1C=C(Cl)Cl [Example 45]            %           92
3  CCOc1cc(C=C(Cl)Cl)ccc1OCc1ccccc1/C(=N\OC)C(=O)OC [Example 59]            %           98

Consider now this further compound.
Can you look up the measured pest or weed control at 2 ppm of CNC(=O)/C(=N/OC)c1ccccc1COc1ccc(C=C(Br)Br)cc1Cl [Example 64] for me?
99

* * *

// values below are reported pest or weed control at 50 ppm
Tested on: Phytophthora infestans
experimentDescription: whole plant or invertebrate
Type: in vivo
experimentalSetup: Phytophthora infestans, in Solanum lycopersicum, read-out: TLB control value (C.V.)
Write the number in % without appending the unit.

>>> print(df.to_string())
                                  smilesstr  readoutunit  assayresult
0  CO/N=C(/C(=O)OC)c1ccccc1COc1ccc(C=C(Cl)Cl)cc1C            %          100
1  CO/N=C(/C(=O)OC)c1ccccc1COc1ccc(C=C(Cl)Cl)cc1            %           95
2  CNC(=O)/C(=N/OC)c1ccccc1COc1ccc(C=C(Cl)Cl)c(Cl)c1            %          100
3  CNC(=O)/C(=N/OC)c1ccccc1COc1ccc(C)cc1C=C(Cl)Cl            %          100

What does the data say about its pest or weed control at 50 ppm? Entry: CO/N=C(/C(=O)OC)c1ccccc1COc1ccc(C=C(Br)Br)cc1C
100
